# Tested on: KIT(D816H)
# Experiment: KINOMEscan kinase binding assay
# Measurement Parameters: at 1 μM
Would you mind labelling by % Ctrl? At or over 80% is satisfied, under is not satisfied.

[[record]]
compound = "Cc1cc2c([nH]1)/C=C1\\C(=O)Nc3ccc(cc31)-c1c(nn(C)c1C)COCCN(C)C2=O [Cpd. 2]"
target = "KIT(D816H)"
label_value = "satisfied"

[[record]]
compound = "Cc1cc2c([nH]1)/C=C1\\C(=O)Nc3c(Cl)cc(cc31)-c1cn(C)nc1COC[C@@H](C)NC2=O [Cpd. 3]"
target = "KIT(D816H)"
label_value = "satisfied"

[[record]]
compound = "Cc1cc2c([nH]1)/C=C1\\C(=O)Nc3c(Cl)cc(cc31)-c1cn(C)nc1COC[C@@H](C)N(C)C2=O [Cpd. 5]"
target = "KIT(D816H)"
label_value = "not satisfied"

[[record]]
compound = "Cc1cc2c([nH]1)/C=C1\\C(=O)Nc3ccc(cc31)-c1c(nn(C)c1C)OCCCN(C)C2=O [Cpd. 1]"
target = "KIT(D816H)"
label_value = "not satisfied"


====

# Tested on: EPHB6
# Experiment: KINOMEscan kinase binding assay
# Measurement Parameters: at 1 μM
# Experimental: Kinase binding assays were performed at Eurofins/DiscoveRx using the general KINOMEscan Protocol (Fabian, M. A. et al., “A small molecule-kinase interaction map for clinical kinase inhibitors,” Nat. Biotechnol. 2005, 23(3):329-36). […] The kinase concentration in the eluates was measured by qPCR. […] Dissociation constants (Kds) for test compound-kinase interactions were calculated by measuring the amount of kinase captured on the solid support as a function of the test compound concentration.
Recorded Metric: % Ctrl (%)

[[record]]
compound = "Cc1cc2c([nH]1)/C=C1\\C(=O)Nc3ccc(cc31)-c1c(nn(C)c1C)COCCN(C)C2=O [Cpd. 2]"
recorded_metric = "% Ctrl"
readout_value = 93

[[record]]
compound = "Cc1cc2c([nH]1)/C=C1\\C(=O)Nc3c(Cl)cc(cc31)-c1cn(C)nc1COC[C@@H](C)N(C)C2=O [Cpd. 5]"
recorded_metric = "% Ctrl"
readout_value = 92

[[record]]
compound = "C[C@@H]1COCc2nn(C)cc2-c2cc(Cl)c3c(c2)/C(=C/c2[nH]ccc2C(=O)N1)C(=O)N3 [Cpd. 4]"
recorded_metric = "% Ctrl"
readout_value = 86

[[record]]
compound = "Cc1cc2c([nH]1)/C=C1\\C(=O)Nc3c(Cl)cc(cc31)-c1cn(C)nc1COC[C@@H](C)NC2=O [Cpd. 3]"
recorded_metric = "% Ctrl"
readout_value = 86

[[record]]
compound = "Cc1cc2c([nH]1)/C=C1\\C(=O)Nc3ccc(cc31)-c1c(nn(C)c1C)OCCCN(C)C2=O [Cpd. 1]"
recorded_metric = "% Ctrl"
readout_value = 100


====

# Test system: JAK1(JH1domain-catalytic)
# Experiment: KINOMEscan kinase binding assay
# Measurement Parameters: JAK1(JH1domain-catalytic); at 1 μM
Recorded Metric: % Ctrl (%)

[[record]]
substance_smiles = "Cc1cc2c([nH]1)/C=C1\\C(=O)Nc3ccc(cc31)-c1c(nn(C)c1C)OCCCN(C)C2=O"
recorded_metric = "% Ctrl"
measurement_unit = "%"
readout_value = 82

[[record]]
substance_smiles = "C[C@@H]1COCc2nn(C)cc2-c2cc(Cl)c3c(c2)/C(=C/c2[nH]ccc2C(=O)N1)C(=O)N3"
recorded_metric = "% Ctrl"
measurement_unit = "%"
readout_value = 94

[[record]]
substance_smiles = "Cc1cc2c([nH]1)/C=C1\\C(=O)Nc3c(Cl)cc(cc31)-c1cn(C)nc1COC[C@@H](C)NC2=O"
recorded_metric = "% Ctrl"
measurement_unit = "%"
readout_value = 100

[[record]]
substance_smiles = "Cc1cc2c([nH]1)/C=C1\\C(=O)Nc3c(Cl)cc(cc31)-c1cn(C)nc1COC[C@@H](C)N(C)C2=O"
recorded_metric = "% Ctrl"
measurement_unit = "%"
readout_value = 100

[[record]]
substance_smiles = "Cc1cc2c([nH]1)/C=C1\\C(=O)Nc3ccc(cc31)-c1c(nn(C)c1C)COCCN(C)C2=O"
recorded_metric = "% Ctrl"
measurement_unit = "%"
readout_value = 100


====

# System: INSRR
# Experiment: KINOMEscan kinase binding assay
# Measurement Parameters: at 1 μM
Recorded Metric: % Ctrl (%)

[[record]]
compound = "Cc1cc2c([nH]1)/C=C1\\C(=O)Nc3c(Cl)cc(cc31)-c1cn(C)nc1COC[C@@H](C)N(C)C2=O [Cpd. 5]"
readout_value = 99

[[record]]
compound = "C[C@@H]1COCc2nn(C)cc2-c2cc(Cl)c3c(c2)/C(=C/c2[nH]ccc2C(=O)N1)C(=O)N3 [Cpd. 4]"
readout_value = 91

[[record]]
compound = "Cc1cc2c([nH]1)/C=C1\\C(=O)Nc3ccc(cc31)-c1c(nn(C)c1C)COCCN(C)C2=O [Cpd. 2]"
readout_value = 100

[[record]]
compound = "Cc1cc2c([nH]1)/C=C1\\C(=O)Nc3ccc(cc31)-c1c(nn(C)c1C)OCCCN(C)C2=O [Cpd. 1]"
readout_value = 94

[[record]]
compound = "Cc1cc2c([nH]1)/C=C1\\C(=O)Nc3c(Cl)cc(cc31)-c1cn(C)nc1COC[C@@H](C)NC2=O [Cpd. 3]"
readout_value = 99


====

Entries annotated with measured % Ctrl
# Test system: BMX
# Experiment: KINOMEscan kinase binding assay
# Measurement Parameters: at 1 μM
Recorded Metric: % Ctrl (%)

[[record]]
substance_smiles = "Cc1cc2c([nH]1)/C=C1\\C(=O)Nc3ccc(cc31)-c1c(nn(C)c1C)OCCCN(C)C2=O"
recorded_metric = "% Ctrl"
readout_value = 67

[[record]]
substance_smiles = "Cc1cc2c([nH]1)/C=C1\\C(=O)Nc3c(Cl)cc(cc31)-c1cn(C)nc1COC[C@@H](C)NC2=O"
recorded_metric = "% Ctrl"
readout_value = 91

[[record]]
substance_smiles = "C[C@@H]1COCc2nn(C)cc2-c2cc(Cl)c3c(c2)/C(=C/c2[nH]ccc2C(=O)N1)C(=O)N3"
recorded_metric = "% Ctrl"
readout_value = 93

[[record]]
substance_smiles = "Cc1cc2c([nH]1)/C=C1\\C(=O)Nc3c(Cl)cc(cc31)-c1cn(C)nc1COC[C@@H](C)N(C)C2=O"
recorded_metric = "% Ctrl"
readout_value = 100

[[record]]
substance_smiles = "Cc1cc2c([nH]1)/C=C1\\C(=O)Nc3ccc(cc31)-c1c(nn(C)c1C)COCCN(C)C2=O"
recorded_metric = "% Ctrl"
readout_value = 95


====

# Tested on: EPHA5
# Experiment: KINOMEscan kinase binding assay
# Measurement Parameters: at 1 μM
Recorded % Ctrl values for a group of molecules are listed next.
Recorded Metric: % Ctrl (%)

[[record]]
substance_smiles = "Cc1cc2c([nH]1)/C=C1\\C(=O)Nc3c(Cl)cc(cc31)-c1cn(C)nc1COC[C@@H](C)NC2=O"
readout_value = 100

[[record]]
substance_smiles = "C[C@@H]1COCc2nn(C)cc2-c2cc(Cl)c3c(c2)/C(=C/c2[nH]ccc2C(=O)N1)C(=O)N3"
readout_value = 100

[[record]]
substance_smiles = "Cc1cc2c([nH]1)/C=C1\\C(=O)Nc3ccc(cc31)-c1c(nn(C)c1C)OCCCN(C)C2=O"
readout_value = 93

[[record]]
substance_smiles = "Cc1cc2c([nH]1)/C=C1\\C(=O)Nc3ccc(cc31)-c1c(nn(C)c1C)COCCN(C)C2=O"
readout_value = 99

[[record]]
substance_smiles = "Cc1cc2c([nH]1)/C=C1\\C(=O)Nc3c(Cl)cc(cc31)-c1cn(C)nc1COC[C@@H](C)N(C)C2=O"
readout_value = 97


====

# System: KIT-autoinhibited
# Experiment: KINOMEscan kinase binding assay
# Measurement Parameters: at 1 μM
Recorded Metric: % Ctrl

[[record]]
substance_smiles = "Cc1cc2c([nH]1)/C=C1\\C(=O)Nc3c(Cl)cc(cc31)-c1cn(C)nc1COC[C@@H](C)N(C)C2=O"
recorded_metric = "% Ctrl"
readout_value = "83%"

[[record]]
substance_smiles = "C[C@@H]1COCc2nn(C)cc2-c2cc(Cl)c3c(c2)/C(=C/c2[nH]ccc2C(=O)N1)C(=O)N3"
recorded_metric = "% Ctrl"
readout_value = "82%"

[[record]]
substance_smiles = "Cc1cc2c([nH]1)/C=C1\\C(=O)Nc3ccc(cc31)-c1c(nn(C)c1C)COCCN(C)C2=O"
recorded_metric = "% Ctrl"
readout_value = "100%"

[[record]]
substance_smiles = "Cc1cc2c([nH]1)/C=C1\\C(=O)Nc3c(Cl)cc(cc31)-c1cn(C)nc1COC[C@@H](C)NC2=O"
recorded_metric = "% Ctrl"
readout_value = "87%"

[[record]]
substance_smiles = "Cc1cc2c([nH]1)/C=C1\\C(=O)Nc3ccc(cc31)-c1c(nn(C)c1C)OCCCN(C)C2=O"
recorded_metric = "% Ctrl"
readout_value = "81%"


Taken from patent US20250074920A1.
